Test system: HDF (human dermal fibroblasts)
Assay: MTT assay, normal HDF
Type: cell-based
Conditions: Homo sapiens, Fibroblast, read-out: IC50 (±SD), HDF
Source text: All the cell lines and mediums were obtained from the American Type Culture Collection (ATCC) supplied by LGC-Standards (Lomianki, Poland). […]
Metric Name: pIC50
Formally, pIC50 is defined as -log10 of the concentration c, with c in mol/L.

Reference set, count: 2
# Compound, Metric Name, Numeric Result
records = [
    ("CC(=O)OCC12CCC(C)(C)CC1C1=CCC3C4(C)CCC(OC(C)=O)C(C)(C)C4CCC3(C)C1(C)CC2 (stereo not drawn)", "pIC50", 4.27),
    ("C=C(C)C1CCC2(C(=O)O)CCC3(C)C(CCC4C5(C)CCC(OC(C)=O)C(C)(C)C5CCC43C)C12 (stereo not drawn)", "pIC50", 5.54),
]

So for `CC1(C)CC[C@]23CC[C@]4(C)[C@H](CC[C@@H]5[C@@]6(C)CC[C@H](O)C(C)(C)[C@@H]6CC[C@]54C)[C@H]2[C@H]1OC3` , the logged pIC50 turned out to be 4.32

---

Tested on: HDF (human dermal fibroblasts)
Test: MTT assay, normal HDF
Type: cell-based
Settings: Homo sapiens, Fibroblast, read-out: IC50 (±SD), HDF
Metric Name: log10(IC50) (log10 of the value in µM)
In plain terms, each number is the log10 of measured IC50 in µM.

Some compounds with known log10(IC50) results, for comparison:
# Compound, Numeric Result
data = [
    ("CC(=O)O[C@H]1CC[C@]2(C)[C@H]3CC=C4[C@@H]5CC(C)(C)CC[C@]5(C(=O)O)CC[C@@]4(C)[C@]3(C)CC[C@H]2C1(C)C [1b, 3-O-Acetyloleanolic acid]", -0.72),
    ("C=C(C)[C@@H]1CC[C@]2(CO)CC[C@]3(C)[C@H](CC[C@@H]4[C@@]5(C)CC[C@H](O)C(C)(C)[C@@H]5CC[C@]43C)[C@@H]12 [5a, betulin]", 1.20),
    ("CC1(C)CC[C@]2(CO)CC[C@]3(C)C(=CC[C@@H]4[C@@]5(C)CC[C@H](O)C(C)(C)[C@@H]5CC[C@]43C)[C@@H]2C1 [2a, erythrodiol]", 1.45),
    ("C=C(C)[C@@H]1CC[C@]2(C)CC[C@]3(C)[C@H](CC[C@@H]4[C@@]5(C)CC[C@H](O)C(C)(C)[C@@H]5CC[C@]43C)[C@@H]12 [6a, lupeol]", 1.46),
]

Now consider the entry below.
Tested on HDF (human dermal fibroblasts): C=C(C)[C@@H]1CC[C@]2(C(=O)O)CC[C@]3(C)[C@H](CC[C@@H]4[C@@]5(C)CC[C@H](O)C(C)(C)[C@@H]5CC[C@]43C)[C@@H]12 [4a, betulinic acid] . Observed log10(IC50): 1.30

---

Tested on: A-549 (human lung carcinoma)
Assay: MTT assay, A-549
Assay type: cell-based
Details: MTT assay, A-549; read-out: IC50 (±SD), A-549
Metric Name: IC50 (µM)
Entry rule: numbers only, all in µM.

Record summary for C=C(C)[C@@H]1CC[C@]2(C)CC[C@]3(C)[C@H](CC[C@@H]4[C@@]5(C)CC[C@H](OC(C)=O)C(C)(C)[C@@H]5CC[C@]43C)[C@@H]12 [6b, 3-O-Acetylolupeol] : reported IC50 = 56.2

---

Tested on: MCF-7 (human breast carcinoma)
Assay: MTT assay, MCF-7
Format: cell-based
Details: Homo sapiens, MCF7; MTT assay, MCF-7; read-out: IC50 (±SD), MCF-7
Metric Name: IC50 (µM)
Could you give me the number in µM? Just the number is fine.

Sample answers from the record:
# Compound, Measured On, Units Label, IC50
records = [
    ("C=C(C)[C@@H]1CC[C@]2(CO)CC[C@]3(C)[C@H](CC[C@@H]4[C@@]5(C)CC[C@H](O)C(C)(C)[C@@H]5CC[C@]43C)[C@@H]12", "MCF-7 (human breast carcinoma)", "µM", 18.1),
    ("CC1(C)CC[C@]23CC[C@]4(C)[C@H](CC[C@@H]5[C@@]6(C)CC[C@H](O)C(C)(C)[C@@H]6CC[C@]54C)[C@H]2[C@H]1OC3", "MCF-7 (human breast carcinoma)", "µM", 71.1),
    ("CC(=O)O[C@H]1CC[C@]2(C)[C@H]3CC=C4[C@@H]5CC(C)(C)CC[C@]5(C(=O)O)CC[C@@]4(C)[C@]3(C)CC[C@H]2C1(C)C", "MCF-7 (human breast carcinoma)", "µM", 1.86),
]

// next entry
Form field IC50, entry CC(=O)OCC12CCC(C)(C)CC1C1=CCC3C4(C)CCC(OC(C)=O)C(C)(C)C4CCC3(C)C1(C)CC2 (stereo not shown) : 61.6

---

Assay: DPPH antioxidant assay
Details: calculated from Trolox standard curve
Here, each record is paired with measured Trolox Equivalent, DPPH Assay data.
Value and unit, in that order.

# Molecule, Trolox Equivalent, DPPH Assay
records = [
    ("CC(=O)O[C@H]1CC[C@]2(C)[C@H]3CC=C4[C@@H]5CC(C)(C)CC[C@]5(C(=O)O)CC[C@@]4(C)[C@]3(C)CC[C@H]2C1(C)C [1b, 3-O-Acetyloleanolic acid]", "0.0143 ± 0.000592 mg/mL"),
    ("C=C(C)[C@@H]1CC[C@]2(C(=O)O)CC[C@]3(C)[C@H](CC[C@@H]4[C@@]5(C)CC[C@H](O)C(C)(C)[C@@H]5CC[C@]43C)[C@@H]12 [4a, betulinic acid]", "0.01526 ± 0.000632 mg/mL"),
]

Form: molecule = CC1(C)CC[C@]2(C(=O)O)CC[C@]3(C)C(=CC[C@@H]4[C@@]5(C)CC[C@H](O)C(C)(C)[C@@H]5CC[C@]43C)[C@@H]2C1 [1a, oleanolic acid] ; Trolox Equivalent, DPPH Assay = 0.02633 ± 0.00109 mg/mL

Query C=C(C)[C@@H]1CC[C@]2(C)CC[C@]3(C)[C@H](CC[C@@H]4[C@@]5(C)CC[C@H](OC(C)=O)C(C)(C)[C@@H]5CC[C@]43C)[C@@H]12 [6b, 3-O-Acetylolupeol] yields Trolox Equivalent, DPPH Assay of 0.00348 ± 0.000144 mg/mL

---

Test: DPPH antioxidant assay
Details: calculated from Trolox standard curve
Below is a list of entries, each paired with its recorded Trolox Equivalent, DPPH Assay value.

Here's what some known entries look like.
# Compound, Trolox Equivalent, DPPH Assay
data = [
    ("CC1(C)CC[C@]23CC[C@]4(C)[C@H](CC[C@@H]5[C@@]6(C)CC[C@H](O)C(C)(C)[C@@H]6CC[C@]54C)[C@H]2[C@H]1OC3 [3a, allobetulin]", "0.01677 ± 0.000694 mg/mL"),
    ("C=C(C)C1CCC2(C(=O)O)CCC3(C)C(CCC4C5(C)CCC(OC(C)=O)C(C)(C)C5CCC43C)C12 (stereo not drawn) [4b, 3-O-Acetylbetulinic acid]", "0.00376 ± 0.000156 mg/mL"),
]

Briefly, Trolox Equivalent, DPPH Assay measured for CC(=O)OCC12CCC(C)(C)CC1C1=CCC3C4(C)CCC(OC(C)=O)C(C)(C)C4CCC3(C)C1(C)CC2 (stereo not drawn) [2b, 3,28-di-O-Acetylerythrodiol] : 0.00313 ± 0.00013 mg/mL

---

IC50 by entry:
System: PC-3 (human prostate carcinoma)
Assay: MTT assay, PC-3
Type: cell-based
Details: Homo sapiens; MTT assay, PC-3; read-out: IC50 (±SD), PC-3
Text: All the cell lines and mediums were obtained from the American Type Culture Collection (ATCC) supplied by LGC-Standards (Lomianki, Poland). […]
Field: numeric (µM). Do not append units.

# Compound, IC50 [µM]
data = [
    ("CC1(C)CC[C@]23CC[C@]4(C)[C@H](CC[C@@H]5[C@@]6(C)CC[C@H](O)C(C)(C)[C@@H]6CC[C@]54C)[C@H]2[C@H]1OC3", 20.2),
    ("C=C(C)C1CCC2(C(=O)O)CCC3(C)C(CCC4C5(C)CCC(OC(C)=O)C(C)(C)C5CCC43C)C12 (stereo not drawn)", 0.93),
]

Result for `C=C(C)[C@@H]1CC[C@]2(CO)CC[C@]3(C)[C@H](CC[C@@H]4[C@@]5(C)CC[C@H](O)C(C)(C)[C@@H]5CC[C@]43C)[C@@H]12` , tested on PC-3 (human prostate carcinoma), IC50: 6.22

---

Test system: HeLa (human cervical epithelioid carcinoma)
Experiment: MTT assay, HeLa
Type: cell-based
Conditions: IC50 HDF / IC50 HeLa
Metric Name: Selectivity index (SI), HeLa
// print number alone

Worked set:
# Molecule, Selectivity index (SI), HeLa
data = [
    ("C=C(C)[C@@H]1CC[C@]2(C)CC[C@]3(C)[C@H](CC[C@@H]4[C@@]5(C)CC[C@H](O)C(C)(C)[C@@H]5CC[C@]43C)[C@@H]12", 0.77),
    ("CC(=O)OCC12CCC(C)(C)CC1C1=CCC3C4(C)CCC(OC(C)=O)C(C)(C)C4CCC3(C)C1(C)CC2 (stereo not shown)", 0.75),
    ("CC1(C)CC[C@]23CC[C@]4(C)[C@H](CC[C@@H]5[C@@]6(C)CC[C@H](O)C(C)(C)[C@@H]6CC[C@]54C)[C@H]2[C@H]1OC3", 0.97),
    ("C=C(C)[C@@H]1CC[C@]2(CO)CC[C@]3(C)[C@H](CC[C@@H]4[C@@]5(C)CC[C@H](O)C(C)(C)[C@@H]5CC[C@]43C)[C@@H]12", 0.86),
    ("C=C(C)C1CCC2(C(=O)O)CCC3(C)C(CCC4C5(C)CCC(OC(C)=O)C(C)(C)C5CCC43C)C12 (stereo not shown)", 1.77),
    ("C=C(C)[C@@H]1CC[C@]2(C(=O)O)CC[C@]3(C)[C@H](CC[C@@H]4[C@@]5(C)CC[C@H](O)C(C)(C)[C@@H]5CC[C@]43C)[C@@H]12", 0.72),
]

Next:
Selectivity index (SI), HeLa recorded for this molecule, `CC(=O)O[C@H]1CC[C@]2(C)[C@H]3CC=C4[C@@H]5CC(C)(C)CC[C@]5(C(=O)O)CC[C@@]4(C)[C@]3(C)CC[C@H]2C1(C)C` , is 0.79

Values were extracted from paper PMC12196235.
